Tested on: RXF-631 renal
RUN DESCRIPTION: NCI tumour cell line growth inhibition, 48 h
Parameter: TGI. Scope: all listed entries.
Note: unit µM is implicit; provide only the numeric part.

Example entries and their recorded answers appear below.
c1ccc(-c2nnc3nn4c(-c5ccccc5)cnnc4c3c2-c2ccccc2)cc1; 66.7
Cn1nc(-c2ccccc2)c(C(=O)/C=C/c2ccc(Cl)cc2)c(N2CCCC2)c1=O; 50.5

Switching to the query record.
Reported TGI of c1ccc(-c2ccnc3c2ccc2c(-c4ccccc4)ccnc23)cc1 : 6.19

----------
System: COLO 205 colon
RUN DESCRIPTION: NCI tumour cell line growth inhibition, 48 h
Parameter: TGI. Scope: all listed entries.
Note: unit µM is implicit; provide only the numeric part.

Example entries and their recorded answers appear below.
Cc1cc2nc(-c3c(F)cccc3Cl)n(Cc3c(F)cccc3Cl)c2cc1C; 26.3
CC(C)(C)Sc1nnc(SC(C)(C)C)c2c(=O)[nH]nc(SC(C)(C)C)c12; 25.2
COc1ccc2c(c1)/C(=N/OC(C)=O)c1c-2cnc2ccccc12; 94.7
CC(NC(=O)C(Cc1ccc(OC(=O)c2ccccc2)cc1)NC(=O)OC(C)(C)C)C(=O)NCC(=O)NC(Cc1ccccc1)C(=O)NN (stereo not given); 53.2

Reported TGI of CN(C)CCNC(=O)c1c(O)ccc2c1c1c(n2CCc2ccccc2)C(=O)c2ccccc2C1=O : 34.4

Reported TGI of CCCCCCCCCCCCCCCCOCC(O)CO (stereo not given) : 50.8

Reported TGI of CC(C)[Si](OCC1CC(C#N)OC(C)(C)O1)(C(C)C)C(C)C (stereo not given) : 31.7

----------
Parameter: TGI. Scope: all listed entries.
System: HCT-15 colon
RUN DESCRIPTION: NCI tumour cell line growth inhibition, 48 h

Reported TGI of O=C1CC(c2ccccc2)S(=O)c2ccccc2N1 (configuration not stated) : > 100 µM

Reported TGI of CN1CCN(c2ccc3nc(-c4ccc(OCCCCN5CCN(CCCCN6C(=O)c7cccc8cccc(c78)C6=O)CC5)cc4)[nH]c3c2)CC1 : > 100 µM

Reported TGI of Cc1ccc(S[C@@H](C)[C@@](O)(C(N)=O)c2ccccc2)cc1 : > 100 µM

Reported TGI of N#CC(C(=O)CCCC(=O)Nc1ccc(Cl)cc1Cl)c1ccc(Cl)cc1 (configuration not stated) : > 100 µM

Reported TGI of C=C1C(=O)OC2C3OC(C)(CCC(O)C3COC(C)=O)CC(OC(=O)/C(=C/C)COC(C)=O)C12 (configuration not stated) : 0.141 µM

Reported TGI of C=CC[C@H](N=C(SC)SC)C(=O)N1C(=O)N(C)[C@@H](C)[C@H]1c1ccccc1 : > 100 µM

----------
Tested on: BT-549 breast
RUN DESCRIPTION: NCI tumour cell line growth inhibition, 48 h
ENDPOINT LABEL: TGI

Example entries and their recorded answers appear below.
Cc1cc(Nc2nc(-c3ccncc3)nc3ccccc23)n[nH]1; > 100 µM
Nc1ccn(C2OC(C(OC3OC(CO)C(O)C(N)C3O)C(O)C(O)C(O)C(O)CO)C(N)C(O)C2O)c(=O)n1 (stereo not given); 99 µM
COc1ccc2c(c1)CCC/C2=N\NS(=O)(=O)c1c(C)cc(C)cc1C; 77.2 µM
COc1ccc(-c2n/c(=C\c3c(O)[nH]c4ccccc34)cc3c2=Nc2ccccc2-3)cc1; 2.96 µM
O=C(O)CCc1nc(-c2ccccc2-n2cccc2)no1; > 100 µM
Nc1nc(N)c2c(n1)NC(c1sc(Cl)nc1Cl)CC(c1ccc3c(c1)OCO3)=N2 (stereo not given); 18.9 µM

Reported TGI of Clc1cc2nnn(C3CCCO3)c2cc1Cl (stereo not given) : > 100 µM

Reported TGI of COc1ccc2c(c1)/C(=N/OC(C)=O)c1c-2cnc2ccccc12 : > 100 µM

Reported TGI of CSCCCNC(=O)[C@H](CSC)NC(=O)c1csc(CCNC(=O)[C@@H](NSc2ccccc2[N+](=O)[O-])C(C)O)n1 (stereo not given in full) : > 100 µM

Reported TGI of O=C1c2cc([N+](=O)[O-])sc2C(=O)c2c([N+](=O)[O-])csc21 : 1.93 µM
